test-description: Free plasma protein binding (PPB) assay, equilibrium dialysis
Type: in vitro ADME
condition-label: pH 7.4, Rat plasma, dialysis 6 hours at 37° C., read-out: fu % Rat
metric-name: fraction unbound at 6 h, 1 μM

Example entries begin here.
{"compound": "COC(=O)NS(=O)(=O)c1sc(CC(C)C)c(C)c1-c1ccc(Cn2ccnc2C)cc1", "fraction unbound at 6 h, 1 μM": 0.0109}
{"compound": "COC(=O)NS(=O)(=O)c1sc(CC(C)C)cc1-c1ccc(Cn2ccnc2C)cc1C", "fraction unbound at 6 h, 1 μM": 0.0097}
{"compound": "COC(=O)NS(=O)(=O)c1sc(CC(C)C)cc1-c1ccc(Cn2ccnc2C(C)(C)C)c(C#N)c1", "fraction unbound at 6 h, 1 μM": 0.0043}

1. CCCCOC(=O)NS(=O)(=O)c1sc(CC(C)C)cc1-c1ccc(Cn2ccnc2)cc1 [Control Compound I, reference compound]
2. COC(=O)NS(=O)(=O)c1sc(CC(C)C)c(C)c1-c1ccc(Cn2ccnc2Cl)cc1
Task: // compare: 1 vs 2 , metric fraction unbound at 6 h, 1 μM, want the smaller Your answer should be the label of the entry you select.
Output: 1
(1: 0.0005, 2: 0.0289)

* * *

test-description: Free plasma protein binding (PPB) assay, equilibrium dialysis
Format: in vitro ADME
condition-label: dog, pH 7.4, Canine plasma, dialysis 6 hours at 37° C., read-out: fu % Canine
metric-name: fraction unbound at 6 h, 1 μM

{"compound": "COC(=O)NS(=O)(=O)c1sc(CC(C)C)c(C)c1-c1ccc(Cn2ccnc2Cl)cc1 [Compound I-34]", "fraction unbound at 6 h, 1 μM": 0.0141}

a. COC(=O)NS(=O)(=O)c1sc(CC(C)C)cc1-c1ccc(Cn2ccnc2C)cc1C [Compound I-11]
b. CCCCOC(=O)NS(=O)(=O)c1sc(CC(C)C)cc1-c1ccc(Cn2ccnc2)cc1 [Control Compound I, reference compound]
c. COC(=O)NS(=O)(=O)c1sc(CC(C)C)c(C)c1-c1ccc(Cn2ccnc2C)cc1 [Compound I-16]
d. COC(=O)NS(=O)(=O)c1sc(CC(C)C)cc1-c1ccc(Cn2ccnc2C(C)(C)C)c(C#N)c1 [Compound I-13]
Task: Let's sort these by fraction unbound at 6 h, 1 μM, smallest first. Go ahead? In your reply, arrange the labels in the requested order.
Output: b, d, a, c

* * *

test-description: Free plasma protein binding (PPB) assay, equilibrium dialysis
Assay type: in vitro ADME
condition-label: pH 7.4, Mouse plasma, dialysis 6 hours at 37° C., read-out: fu % Mouse
metric-name: fraction unbound at 6 h, 1 μM

{"molecule": "COC(=O)NS(=O)(=O)c1sc(CC(C)C)c(C)c1-c1ccc(Cn2ccnc2Cl)cc1 [Compound I-34]", "metric-name": "fraction unbound at 6 h, 1 μM", "value-reported": 0.0093}

a. CCCCOC(=O)NS(=O)(=O)c1sc(CC(C)C)cc1-c1ccc(Cn2ccnc2)cc1 [Control Compound I, reference compound]
b. COC(=O)NS(=O)(=O)c1sc(CC(C)C)cc1-c1ccc(Cn2ccnc2C)cc1C [Compound I-11]
c. COC(=O)NS(=O)(=O)c1sc(CC(C)C)cc1-c1ccc(Cn2ccnc2C(C)(C)C)c(C#N)c1 [Compound I-13]
d. CCc1nccn1Cc1ccc(-c2cc(CC(C)C)sc2S(=O)(=O)NC(=O)OC)cc1C#N [Compound I-14]
Task: Descending sort on fraction unbound at 6 h, 1 μM required. In your reply, arrange the labels in the requested order.
Output: d, c, b, a
(d: 0.0427, c: 0.0211, b: 0.0121, a: 0.0009)

* * *

tested-target: CYP2B6 (Homo sapiens (Human), UniProt P20813)
Sequence (P20813 whole entry): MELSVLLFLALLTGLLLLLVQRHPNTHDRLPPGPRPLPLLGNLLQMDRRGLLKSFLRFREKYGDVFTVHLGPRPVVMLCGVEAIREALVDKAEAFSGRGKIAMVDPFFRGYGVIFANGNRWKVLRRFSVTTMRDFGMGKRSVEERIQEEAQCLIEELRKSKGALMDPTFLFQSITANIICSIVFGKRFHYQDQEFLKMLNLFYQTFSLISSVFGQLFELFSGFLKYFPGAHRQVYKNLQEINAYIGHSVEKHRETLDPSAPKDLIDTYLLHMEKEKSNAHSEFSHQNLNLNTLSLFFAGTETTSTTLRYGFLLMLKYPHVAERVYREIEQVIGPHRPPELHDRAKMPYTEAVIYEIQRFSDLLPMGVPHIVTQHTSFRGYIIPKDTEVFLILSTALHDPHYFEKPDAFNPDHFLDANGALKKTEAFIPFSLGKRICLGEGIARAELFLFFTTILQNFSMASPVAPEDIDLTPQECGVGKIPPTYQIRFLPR
test-description: CYP inhibition assay in mixed human liver microsomes
Format: in vitro ADME
condition-label: mixed (pooled) human liver microsomes, read-out: Inhibition rate % CYP2B6
metric-name: inhibition at 10 µM (%)

Example entries begin here.
{"structure-string": "COC(=O)NS(=O)(=O)c1sc(CC(C)C)cc1-c1ccc(Cn2ccnc2C(C)(C)C)c(C#N)c1", "inhibition at 10 µM / %": 18.3}
{"structure-string": "COC(=O)NS(=O)(=O)c1sc(CC(C)C)c(C)c1-c1ccc(Cn2ccnc2Cl)cc1", "inhibition at 10 µM / %": 13.7}

a. CCc1nccn1Cc1ccc(-c2cc(CC(C)C)sc2S(=O)(=O)NC(=O)OC)cc1C#N
b. CCCCOC(=O)NS(=O)(=O)c1sc(CC(C)C)cc1-c1ccc(Cn2ccnc2C)c(C#N)c1
c. COC(=O)NS(=O)(=O)c1sc(CC(C)C)c(C)c1-c1ccc(Cn2ccnc2C)cc1
Task: Descending sort on inhibition at 10 µM required. In your reply, arrange the labels in the requested order.
Output: b, a, c

* * *

tested-target: CYP2C8 (Homo sapiens (Human))
Sequence (P10632 whole entry): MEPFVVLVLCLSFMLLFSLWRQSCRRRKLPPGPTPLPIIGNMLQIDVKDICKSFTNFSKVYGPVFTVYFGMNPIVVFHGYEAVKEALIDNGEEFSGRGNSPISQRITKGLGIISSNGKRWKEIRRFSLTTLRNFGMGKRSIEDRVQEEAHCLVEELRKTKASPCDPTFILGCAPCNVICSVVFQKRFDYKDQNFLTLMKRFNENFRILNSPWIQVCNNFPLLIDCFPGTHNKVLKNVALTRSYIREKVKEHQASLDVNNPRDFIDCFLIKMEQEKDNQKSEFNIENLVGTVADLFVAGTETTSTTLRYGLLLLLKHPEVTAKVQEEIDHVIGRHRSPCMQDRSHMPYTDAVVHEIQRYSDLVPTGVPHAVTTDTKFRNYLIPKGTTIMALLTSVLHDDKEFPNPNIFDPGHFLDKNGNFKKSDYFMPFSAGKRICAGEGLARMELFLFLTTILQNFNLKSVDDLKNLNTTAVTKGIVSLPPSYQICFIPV
test-description: CYP inhibition assay in mixed human liver microsomes
Format: in vitro ADME
condition-label: mixed (pooled) human liver microsomes, read-out: Inhibition rate % CYP2C8
metric-name: inhibition at 10 µM (%)

{"compound": "CCCCOC(=O)NS(=O)(=O)c1sc(CC(C)C)cc1-c1ccc(Cn2ccnc2)cc1 [Control Compound I, reference compound]", "units": "%", "inhibition at 10 µM": 97.5}
{"compound": "COC(=O)NS(=O)(=O)c1sc(CC(C)C)cc1-c1ccc(Cn2ccnc2C(C)(C)C)c(C#N)c1", "units": "%", "inhibition at 10 µM": 82.7}

I. CCCCOC(=O)NS(=O)(=O)c1sc(CC(C)C)cc1-c1ccc(Cn2ccnc2C)c(C#N)c1
II. COC(=O)NS(=O)(=O)c1sc(CC(C)C)c(C)c1-c1ccc(Cn2ccnc2Cl)cc1
Task: // compare: I vs II , metric inhibition at 10 µM, want the smaller Your answer should be the label of the entry you select.
Output: I
(I: 39.5%, II: 71.8%)

* * *

tested-target: UniProt P50052
Sequence (P50052 whole entry): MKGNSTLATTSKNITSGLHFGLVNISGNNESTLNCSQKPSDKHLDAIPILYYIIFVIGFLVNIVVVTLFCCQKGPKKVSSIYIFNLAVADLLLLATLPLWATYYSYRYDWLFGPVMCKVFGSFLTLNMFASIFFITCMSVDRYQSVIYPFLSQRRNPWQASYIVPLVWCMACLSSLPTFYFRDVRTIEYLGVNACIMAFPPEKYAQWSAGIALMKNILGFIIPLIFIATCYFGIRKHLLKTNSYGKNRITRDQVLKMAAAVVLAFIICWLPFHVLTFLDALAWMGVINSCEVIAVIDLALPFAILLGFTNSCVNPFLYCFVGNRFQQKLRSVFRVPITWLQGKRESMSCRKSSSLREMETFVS
pIC50: −log10 of the molar value.
metric-name: pIC50

A. CCCCOC(=O)NS(=O)(=O)c1sc(CC(C)C)cc1-c1ccc(Cn2ccnc2C)cc1C
B. CCOC(=O)NS(=O)(=O)c1sc(CC(C)C)c(C)c1-c1ccc(Cn2ccnc2C)cc1
Task: Of A and B , whose reported pIC50 is the larger number? Your answer should be the label of the entry you select.
Output: A
(A: 8.62, B: 8.39)

a. CCCCOC(=O)NS(=O)(=O)c1sc(CC(C)C)cc1-c1ccc(Cn2ccnc2)cc1C
b. COC(=O)NS(=O)(=O)c1sc(CC(C)C)c(C)c1-c1ccc(Cn2ccnc2C(C)C)cc1
Task: Of a and b , whose reported pIC50 is the larger number? Your answer should be the label of the entry you select.
Output: b

* * *

test-description: Bidirectional permeability study in CACO-2 cells
Type: in vitro ADME
condition-label: human, pH 7.4, Caco-2 monolayer, pH 7.40
metric-name: Papp A→B at 2 h, 2 μM (nm/s)
Reply numerically in nm/s, unit not repeated.

Task: Which Papp A→B at 2 h, 2 μM is reported for this compound? COC(=O)NS(=O)(=O)c1sc(CC(C)C)c(C)c1-c1ccc(Cn2ccnc2Cl)cc1 [Compound I-34]
Output: 31.3

* * *

tested-target: CYP2D6 (Homo sapiens (Human), UniProt P10635)
Sequence (P10635 whole entry): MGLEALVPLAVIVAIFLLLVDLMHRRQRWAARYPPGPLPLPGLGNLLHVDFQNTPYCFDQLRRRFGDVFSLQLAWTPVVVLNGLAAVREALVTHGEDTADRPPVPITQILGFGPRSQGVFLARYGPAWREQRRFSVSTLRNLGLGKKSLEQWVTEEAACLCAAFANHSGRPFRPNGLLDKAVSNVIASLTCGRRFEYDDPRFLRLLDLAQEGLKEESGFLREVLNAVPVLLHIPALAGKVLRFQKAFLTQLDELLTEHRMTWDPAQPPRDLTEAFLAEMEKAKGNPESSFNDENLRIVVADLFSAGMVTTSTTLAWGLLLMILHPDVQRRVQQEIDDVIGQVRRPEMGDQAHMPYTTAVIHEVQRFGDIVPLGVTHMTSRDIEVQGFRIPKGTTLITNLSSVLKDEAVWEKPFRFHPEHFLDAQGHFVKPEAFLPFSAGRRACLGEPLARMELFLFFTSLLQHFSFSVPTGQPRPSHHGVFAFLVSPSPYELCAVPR
test-description: CYP inhibition assay in mixed human liver microsomes
Assay type: in vitro ADME
condition-label: mixed (pooled) human liver microsomes, read-out: Inhibition rate % CYP2D6
metric-name: inhibition at 10 µM (%)

{"structure-string": "COC(=O)NS(=O)(=O)c1sc(CC(C)C)c(C)c1-c1ccc(Cn2ccnc2C)cc1", "units": "%", "value-reported": 9.54}
{"structure-string": "CCCCOC(=O)NS(=O)(=O)c1sc(CC(C)C)cc1-c1ccc(Cn2ccnc2C)c(C#N)c1", "units": "%", "value-reported": 10.4}

A. COC(=O)NS(=O)(=O)c1sc(CC(C)C)c(C)c1-c1ccc(Cn2ccnc2Cl)cc1
B. COC(=O)NS(=O)(=O)c1sc(CC(C)C)cc1-c1ccc(Cn2ccnc2C(C)(C)C)c(C#N)c1
C. COC(=O)NS(=O)(=O)c1sc(CC(C)C)cc1-c1ccc(Cn2ccnc2C)cc1C
Task: Let's sort these by inhibition at 10 µM, smallest first. Go ahead? In your reply, arrange the labels in the requested order.
Output: C, B, A

* * *

test-description: Liver microsome stability assay
Assay type: in vitro ADME
condition-label: dog; Canine liver microsomes; read-out: T1/2 (min) Canine
metric-name: half-life at 1 μM (min)

P. CCCCOC(=O)NS(=O)(=O)c1sc(CC(C)C)cc1-c1ccc(Cn2ccnc2)cc1 [Control Compound I, reference compound]
Q. COC(=O)NS(=O)(=O)c1sc(CC(C)C)c(C)c1-c1ccc(Cn2ccnc2C)cc1
R. COC(=O)NS(=O)(=O)c1sc(CC(C)C)c(C)c1-c1ccc(Cn2ccnc2Cl)cc1
Task: Please list these in order of increasing half-life at 1 μM. Thank you! In your reply, arrange the labels in the requested order.
Output: R, P, Q
(R: 122 min, P: 224 min, Q: 578 min)
